- Target or system: TNAP (Homo sapiens)
- Sequence (P05186 18-501 limits assumed): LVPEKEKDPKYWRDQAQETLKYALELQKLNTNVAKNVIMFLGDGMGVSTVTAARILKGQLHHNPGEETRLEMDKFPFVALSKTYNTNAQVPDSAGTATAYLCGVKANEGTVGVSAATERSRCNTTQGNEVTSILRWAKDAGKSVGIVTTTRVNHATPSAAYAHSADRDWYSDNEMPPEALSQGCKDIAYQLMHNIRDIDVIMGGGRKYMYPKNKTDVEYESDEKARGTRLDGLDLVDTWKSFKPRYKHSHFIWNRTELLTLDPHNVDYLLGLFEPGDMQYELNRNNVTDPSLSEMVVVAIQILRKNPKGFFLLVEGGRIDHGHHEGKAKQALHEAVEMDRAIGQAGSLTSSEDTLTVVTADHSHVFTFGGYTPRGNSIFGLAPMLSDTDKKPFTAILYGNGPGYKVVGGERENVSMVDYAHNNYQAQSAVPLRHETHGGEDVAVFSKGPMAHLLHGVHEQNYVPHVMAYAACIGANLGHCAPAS
- Assay explanation: TNAP luminescent assay
- Type: biochemical
- Test parameters: relative to lead compound 1
Value type: TNAP inhibitory activity (in words)

COc1ccc(OC)c(S(=O)(=O)Nc2ccc3ccccc3c2)c1 [Compound 12] | loss of activity
COc1ccc(OC)c(S(=O)(=O)Nc2ccc3ncccc3c2)c1 [Compound 13] | loss of activity

* * *

- Target or system: PLAP (Homo sapiens, UniProt P05187)
- Sequence (P05187 23-506 limits assumed): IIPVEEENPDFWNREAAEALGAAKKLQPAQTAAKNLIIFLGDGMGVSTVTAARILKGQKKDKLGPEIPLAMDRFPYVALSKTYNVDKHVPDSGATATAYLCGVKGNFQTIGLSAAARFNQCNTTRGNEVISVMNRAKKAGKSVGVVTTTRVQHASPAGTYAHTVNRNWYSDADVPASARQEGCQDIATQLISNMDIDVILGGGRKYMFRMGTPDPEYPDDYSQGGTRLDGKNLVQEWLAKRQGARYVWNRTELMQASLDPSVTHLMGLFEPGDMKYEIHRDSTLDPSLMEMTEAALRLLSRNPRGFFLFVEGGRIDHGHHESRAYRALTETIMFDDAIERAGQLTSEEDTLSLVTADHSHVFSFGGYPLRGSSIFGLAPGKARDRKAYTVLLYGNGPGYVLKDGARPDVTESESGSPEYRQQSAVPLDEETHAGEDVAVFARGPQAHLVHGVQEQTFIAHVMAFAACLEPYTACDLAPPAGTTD
- Assay explanation: PLAP luminescent assay
- Format: biochemical
pIC50: −log10 of the molar value.
Value type: pIC50

Quick note, pIC50 for `COc1ccc(OC)c(S(=O)(=O)Nc2cnc3ccccc3c2)c1` landed at < 4.00
